The origin of these recorded values is patent US20260263646A1.

IC50 PC3pip (M), cell viability by CellTiter-Glo after 4 days reference
# System tested: PSMA on PC3pip cells (UniProt Q04609 1-750, limits assumed)
# Sequence (Q04609 whole entry): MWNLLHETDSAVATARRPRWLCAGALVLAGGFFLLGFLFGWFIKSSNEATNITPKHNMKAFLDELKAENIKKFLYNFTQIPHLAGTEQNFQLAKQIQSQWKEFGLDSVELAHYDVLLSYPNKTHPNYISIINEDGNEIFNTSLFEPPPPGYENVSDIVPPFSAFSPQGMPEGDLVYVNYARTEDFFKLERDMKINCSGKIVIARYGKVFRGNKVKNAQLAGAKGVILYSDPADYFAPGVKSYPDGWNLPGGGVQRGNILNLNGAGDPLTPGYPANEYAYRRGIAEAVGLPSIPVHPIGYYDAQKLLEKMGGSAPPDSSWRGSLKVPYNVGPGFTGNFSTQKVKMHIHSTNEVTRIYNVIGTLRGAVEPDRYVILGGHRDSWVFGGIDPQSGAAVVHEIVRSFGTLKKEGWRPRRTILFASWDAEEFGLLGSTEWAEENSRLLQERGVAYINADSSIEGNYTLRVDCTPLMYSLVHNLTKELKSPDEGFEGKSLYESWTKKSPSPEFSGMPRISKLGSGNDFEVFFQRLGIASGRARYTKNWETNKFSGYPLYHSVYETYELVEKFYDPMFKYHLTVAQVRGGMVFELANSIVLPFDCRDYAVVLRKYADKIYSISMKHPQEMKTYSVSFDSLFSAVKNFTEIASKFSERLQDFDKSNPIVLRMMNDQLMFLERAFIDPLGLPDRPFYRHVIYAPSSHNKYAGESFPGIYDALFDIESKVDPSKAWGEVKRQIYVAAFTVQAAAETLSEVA
# Method description: cell-based or functional assay
Report only the number, with the unit M understood.

Some binders with recorded IC50 PC3pip (M), cell viability by CellTiter-Glo after 4 days:
Binder	Measured number
C28-101TYR (VHH, MC-PEG8-VC-PABC-MMAE on the C-terminal Cys) VHH: QVQLQESGGGSVEAGGSLRLSCARSGWPYSTYSMNWFRQAPGKEREAVAGISSTMSGIIFAESKAGQFTISQDNAKNTVYLQMNNLKPEDTAIYYCAARRYFSLSSSSDDFDYWGQGTQVTVSS	8.47e-08
C26-54TYR (VHH, MC-PEG8-VC-PABC-MMAE on the C-terminal Cys (DAR 1)) VHH: EVQLVESGGGLVQPGGSLTLSCAASRFMISEYSMHWVRQAPGKGLEWVSTINPYGTTDYAESVKGRFTISRDNAKNTLYLQMNSLKPEDTAVYYCDGYGYRGQGTQVTVSS	3.36e-09
C26-54FSY (VHH, FSY at 54 (X of the entry); MC-PEG8-VC-PABC-MMAE on the C-terminal Cys) VHH: EVQLVESGGGLVQPGGSLTLSCAASRFMISEYSMHWVRQAPGKGLEWVSTINPXGTTDYAESVKGRFTISRDNAKNTLYLQMNSLKPEDTAVYYCDGYGYRGQGTQVTVSS	9.39e-10

With those in mind, consider the next binder.
Retrieve IC50 PC3pip (M), cell viability by CellTiter-Glo after 4 days measured for C28-101FSY (VHH, FSY at 101 (X of the entry); MC-PEG8-VC-PABC-MMAE on the C-terminal Cys) VHH: QVQLQESGGGSVEAGGSLRLSCARSGWPYSTYSMNWFRQAPGKEREAVAGISSTMSGIIFAESKAGQFTISQDNAKNTVYLQMNNLKPEDTAIYYCAARRXFSLSSSSDDFDYWGQGTQVTVSS and print it.
1.8e-10
